Assayed system: glucocerebrosidase (Gcase) (Homo sapiens)
Construct: micellar solution containing 10 nM GCase and 100 nM saposin C
Sequence (P04062 40-536): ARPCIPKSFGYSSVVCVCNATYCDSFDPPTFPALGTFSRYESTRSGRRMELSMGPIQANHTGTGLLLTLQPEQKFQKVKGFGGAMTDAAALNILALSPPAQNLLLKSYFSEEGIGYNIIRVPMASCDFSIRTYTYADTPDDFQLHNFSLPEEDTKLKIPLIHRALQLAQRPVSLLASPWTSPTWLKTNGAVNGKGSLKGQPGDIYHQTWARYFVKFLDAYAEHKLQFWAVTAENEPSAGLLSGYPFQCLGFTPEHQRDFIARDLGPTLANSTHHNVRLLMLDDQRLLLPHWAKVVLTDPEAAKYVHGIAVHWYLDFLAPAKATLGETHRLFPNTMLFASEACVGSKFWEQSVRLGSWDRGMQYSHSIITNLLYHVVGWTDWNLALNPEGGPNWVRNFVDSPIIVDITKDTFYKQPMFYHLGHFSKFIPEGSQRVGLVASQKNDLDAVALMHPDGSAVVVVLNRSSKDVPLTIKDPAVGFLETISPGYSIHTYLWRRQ
Procedure summary: Glucocerebrosidase (Gcase) activation assay, 4-methylumbelliferyl-beta-D-glucopyranoside substrate, fluorescence readout
Assay type: biochemical
Recorded conditions: test compound at 1.0 μM; read-out: Percent Gcase Activation, 1 μM Test Compound
Entries annotated with measured activation at 1 µM

Here's what some known entries look like.
CCCCO[C@H]1CC[C@H](NC(=O)c2ccn3c(COC)cc(C(C)C)nc23)CC1 [III-36]	> 60%
Cc1cc(C)n2ccc(C(=O)N[C@H]3CC[C@H](OC(C)(C)C)CC3)c2n1 [III-289]	> 60%
COCCOCCO[C@H]1CC[C@H](NC(=O)c2ccn3c(C)cc(C)nc23)CC1 [III-105]	< 30%
COc1cc(NC(=O)c2ccn3c(C)cc(C)nc23)ccc1-c1cnco1 [III-87]	30 to 60%

--- query ---
Inquiry: Requested field: activation at 1 µM. Item: COCC#Cc1ccc(NC(=O)c2ccn3c(C)cc(C)nc23)cc1 [III-4]
Reply text: > 60%

---

Procedure summary: Compound solubility in water
Recorded conditions: water, Compound Solubility in Water
Parameter: solubility (µg/mL)

CCCCO[C@H]1CC[C@H](NC(=O)c2ccn3c(COC)cc(C)nc23)CC1	21
Cc1cc(C)n2ccc(C(=O)NC3CCC(C(=O)N(C)C4CC4)CC3)c2n1 (stereo not drawn)	38.5
COCc1cc(C)nc2c(C(=O)NC(C)(C)c3ccc(-c4cocn4)cc3)ccn12	1.7
CCOCCO[C@H]1CC[C@H](NC(=O)c2ccn3c(C)cc(C)nc23)CC1	38.3

(a) COCc1cc(C)n2ccc(C(=O)N[C@H]3CCCc4ccccc43)c2n1
(b) Cc1cc(C)n2ccc(C(=O)Nc3ccc4c(c3)OCO4)c2n1
(c) Cc1cc(C)n2ccc(C(=O)NC3CCOc4cc(F)ccc43)c2n1 (stereo not drawn)
(d) CCCCO[C@H]1C[C@H](NC(=O)c2ccn3c(C)cc(C)nc23)C1
Inquiry: Hi! Can you put these in order of solubility, lowest number first? Answer by writing out the labels in the requested order.
Reply text: b, a, c, d

---

Procedure summary: Compound solubility in water
Recorded conditions: water, Compound Solubility in Water
Parameter: solubility (µg/mL)

Here's what some known entries look like.
Cc1cc(C)n2ccc(C(=O)NC3CCc4nc(C)sc4C3)c2n1 (stereo not drawn)	30.6
Cc1cc(C)n2ccc(C(=O)NC3(C)CCOc4cc(F)c(F)cc43)c2n1 (stereo not drawn)	3.8
CCCCO[C@H]1CC[C@H](NC(=O)c2ccn3c(COC)cc(C(C)C)nc23)CC1	3.5
Cc1cc(C)n2ccc(C(=O)N[C@H]3CC[C@H](Oc4cccs4)CC3)c2n1	4.2

(A) Cc1cc(C)n2ccc(C(=O)N[C@H]3CC[C@H](OC4CCC4)CC3)c2n1
(B) [2H]C1(NC(=O)c2ccn3c(C)cc(C)nc23)CCCc2ccccc21 (stereo not drawn)
(C) CCO[C@H]1CC[C@H](NC(=O)c2ccn3c(C)cc(C)nc23)CC1
(D) Cc1cc(Br)nc2c(C(=O)Nc3ccc(-c4cocn4)cc3)ccn12
(E) COc1cc(-c2cocn2)ccc1NC(=O)c1ccn2c(C)cc(C)nc12
Inquiry: Please give the order of these compounds when sorted by solubility, largest value leading. Answer by writing out the labels in the requested order.
Reply text: C, A, B, D, E
(C: 30.5 µg/mL, A: 8.5 µg/mL, B: 3.4 µg/mL, D: 0.3 µg/mL, E: 0.1 µg/mL)

---

Assayed system: glucocerebrosidase (Gcase) (Homo sapiens, UniProt P04062)
Construct: micellar solution containing 10 nM GCase and 100 nM saposin C
Procedure summary: Glucocerebrosidase (Gcase) activation assay, 4-methylumbelliferyl-beta-D-glucopyranoside substrate, fluorescence readout
Format: biochemical
Recorded conditions: test compound at 1.0 μM; read-out: Percent Gcase Activation, 1 μM Test Compound
Entries annotated with measured activation at 1 µM

Here's what some known entries look like.
CCCCCC(=O)N1C2CCC1CC(NC(=O)c1ccn3c(C)cc(C)nc13)C2 (stereo not shown)	< 30%
CCO[C@H]1CC[C@H](NC(=O)c2ccn3c(C)cc(C)nc23)CC1	< 30%
CO[C@H]1CC[C@@H](C(C)(C)NC(=O)c2ccn3c(C)cc(Cl)nc23)CC1	> 60%

Inquiry: Requested field: activation at 1 µM. Item: COCCOc1ccc2c(c1)C(NC(=O)c1ccn3c(C)cc(C)nc13)CCO2 (stereo not shown)
Reply text: 30 to 60%

Inquiry: Requested field: activation at 1 µM. Item: "Cc1cc(C(F)F)nc2c(C(=O)Nc3ccc(-c4cocn4)cc3)ccn12"
Reply text: 30 to 60%

Inquiry: Requested field: activation at 1 µM. Item: "COCc1cc(C)nc2c(C(=O)NC(C)(C)c3ccc(-c4cocn4)cc3)ccn12"
Reply text: > 60%

Inquiry: Requested field: activation at 1 µM. Item: "Cc1cc(C)n2ccc(C(=O)Nc3ccc(-c4cccs4)cn3)c2n1"
Reply text: > 60%

Inquiry: Requested field: activation at 1 µM. Item: COCc1cc(C2CC2)n2ccc(C(=O)NC3(C)CCOc4cc(F)c(F)cc43)c2n1 (stereo not shown)
Reply text: 30 to 60%

Inquiry: Requested field: activation at 1 µM. Item: "Cc1cc(C)n2ccc(C(=O)N[C@@H]3CCCc4ccccc43)c2n1"
Reply text: > 60%

Inquiry: Requested field: activation at 1 µM. Item: "C#Cc1ccc(C(C)(C)NC(=O)c2ccn3c(COC)cc(C)nc23)cc1"
Reply text: > 60%

Inquiry: Requested field: activation at 1 µM. Item: "Cc1cc(C2CC2)n2ccc(C(=O)N[C@H]3CC[C@H](OCCCC(F)(F)F)CC3)c2n1"
Reply text: > 60%

---

Procedure summary: Compound solubility in water
Recorded conditions: water, Compound Solubility in Water
Parameter: solubility (µg/mL)

Here's what some known entries look like.
CCCOC[C@H]1CC[C@H](NC(=O)c2ccn3c(C)cc(C)nc23)CC1	1.3
CCCCO[C@H]1CC[C@H](NC(=O)c2ccn3c(C)cc(NC)nc23)CC1	0.4
Cc1cc(C)n2ccc(C(=O)NC3CCCc4ccc(-c5cocn5)cc43)c2n1 (stereo not shown)	0.8
C#Cc1ccc(C(C)(C)NC(=O)c2ccn3c(COC)cc(C)nc23)cc1	2.7
Cc1cc(C)n2ccc(C(=O)NC3CC=C(c4cccs4)CC3)c2n1 (stereo not shown)	0.2

(I) Cc1cc(C)n2ccc(C(=O)Nc3ccc(-c4cnn(C)c4)cc3)c2n1
(II) Cc1cc(C)n2ccc(C(=O)NC3Cc4ccc(-c5cscn5)cc4C3)c2n1 (stereo not shown)
Inquiry: Of the two listed items, I and II , which carries the larger solubility figure? // caller expects the label of the chosen entry
Reply text: I
(I: 0.06 µg/mL, II: 0.01 µg/mL)

---

Assayed system: glucocerebrosidase (Gcase) (Homo sapiens)
Construct: micellar solution containing 10 nM GCase and 100 nM saposin C
Procedure summary: Glucocerebrosidase (Gcase) activation assay, 4-methylumbelliferyl-beta-D-glucopyranoside substrate, fluorescence readout
Format: biochemical
Recorded conditions: test compound at 0.1 μM; read-out: Percent Gcase Activation, 0.1 μM Test Compound
Parameter: activation at 0.1 µM

CCCCO[C@H]1CC[C@H](NC(=O)c2ccn3c(COC)cc(C(F)F)nc23)CC1	10 to 20%
Cc1cc(C)n2ccc(C(=O)NC3(C)CCOc4cc(F)c(F)cc43)c2n1 (centres unmarked)	> 20%
Cc1cc(C)n2ccc(C(=O)NC3CCOc4cccc(F)c43)c2n1 (centres unmarked)	> 20%
Cc1cc(C)n2ccc(C(=O)N[C@@H](C)c3ccccc3F)c2n1	> 20%

--- query ---
Inquiry: Requested field: activation at 0.1 µM. Item: CCCCCOC1CCC(NC(=O)c2ccn3c(C)cc(C)nc23)C1 (centres unmarked)
Reply text: 10 to 20%
